The reader will find reported pIC50 values listed item by item below.
measuredTarget: UniProtKB Q9NWZ3
Sequence (Q9NWZ3 1-460): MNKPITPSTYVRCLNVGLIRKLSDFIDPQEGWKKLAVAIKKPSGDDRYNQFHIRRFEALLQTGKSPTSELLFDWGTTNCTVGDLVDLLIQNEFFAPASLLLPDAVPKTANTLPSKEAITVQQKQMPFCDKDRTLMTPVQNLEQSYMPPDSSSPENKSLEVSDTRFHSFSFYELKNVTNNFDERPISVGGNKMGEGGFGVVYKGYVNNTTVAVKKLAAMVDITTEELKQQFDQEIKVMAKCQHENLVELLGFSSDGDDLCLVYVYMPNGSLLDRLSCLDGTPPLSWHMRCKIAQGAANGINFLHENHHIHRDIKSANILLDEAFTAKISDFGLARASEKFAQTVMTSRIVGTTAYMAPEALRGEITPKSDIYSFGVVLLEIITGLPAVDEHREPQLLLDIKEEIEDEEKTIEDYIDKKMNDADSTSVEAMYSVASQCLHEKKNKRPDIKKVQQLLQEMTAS
pIC50: −log10 of the molar value.

Completed entries (count: 3):
// Input: NC1CCC(c2cn3c(cnc4[nH]cc(C5CCOCC5)c43)n2)CC1 (stereo not drawn) . Output its pIC50 only.
> 7.00

// Input: CC1CC(c2cn3c(cnc4[nH]cc(C5CCOCC5)c43)n2)CCN1 (stereo not drawn) . Output its pIC50 only.
6.00 to 7.00

// Input: CN(C)C1CCC(c2cn3c(cnc4[nH]cc(C5CCOCC5)c43)n2)CC1 (stereo not drawn) . Output its pIC50 only.
> 7.00

Others:
// Input: c1[nH]c2ncc3nc(C4CCC5(CC4)CNC5)cn3c2c1C1CCOCC1 . Output its pIC50 only.
> 7.00

// Input: NC1CCC(c2nc3c(cnc4[nH]cc(C5CCOCC5)c43)[nH]2)CC1 (stereo not drawn) [drawing 311] . Output its pIC50 only.
> 7.00

// Input: CN1CCC(c2cn3c(cnc4[nH]cc(C5CCOCC5)c43)n2)C1 (stereo not drawn) . Output its pIC50 only.
6.00 to 7.00

// Input: c1[nH]c2ncc3nc(C4CCC(N5CCOCC5)CC4)cn3c2c1C1CCOCC1 (stereo not drawn) . Output its pIC50 only.
6.00 to 7.00

// Input: c1[nH]c2ncc3nc(C4CCCCC4)cn3c2c1C1CCOCC1 . Output its pIC50 only.
> 7.00

// Input: CN1CCC(c2cn3c(cnc4[nH]cc(C5CCOCC5)c43)n2)CC1 . Output its pIC50 only.
6.00 to 7.00

// Input: CC(=O)N1CCC(c2cn3c(cnc4[nH]cc(C5CCOCC5)c43)n2)CC1 . Output its pIC50 only.
< 6.00

// Input: CN1CCC(c2cn3c(cnc4[nH]cc(C5CCC(C(N)=O)CC5)c43)n2)CC1 (stereo not drawn) . Output its pIC50 only.
< 6.00

// Input: NC1CCC(c2nc3c(cnc4[nH]cc(C5CCOCC5)c43)[nH]2)CC1 (stereo not drawn) [drawing 312] . Output its pIC50 only.
> 7.00
